Attribute: pIC50
Target: acetylcholinesterase (AChE) isolated from Electrophorus electricus (Electrophorus electricus)
Construct: AChE isolated from Electrophorus electricus; from tissue
Sequence (O42275 24-633): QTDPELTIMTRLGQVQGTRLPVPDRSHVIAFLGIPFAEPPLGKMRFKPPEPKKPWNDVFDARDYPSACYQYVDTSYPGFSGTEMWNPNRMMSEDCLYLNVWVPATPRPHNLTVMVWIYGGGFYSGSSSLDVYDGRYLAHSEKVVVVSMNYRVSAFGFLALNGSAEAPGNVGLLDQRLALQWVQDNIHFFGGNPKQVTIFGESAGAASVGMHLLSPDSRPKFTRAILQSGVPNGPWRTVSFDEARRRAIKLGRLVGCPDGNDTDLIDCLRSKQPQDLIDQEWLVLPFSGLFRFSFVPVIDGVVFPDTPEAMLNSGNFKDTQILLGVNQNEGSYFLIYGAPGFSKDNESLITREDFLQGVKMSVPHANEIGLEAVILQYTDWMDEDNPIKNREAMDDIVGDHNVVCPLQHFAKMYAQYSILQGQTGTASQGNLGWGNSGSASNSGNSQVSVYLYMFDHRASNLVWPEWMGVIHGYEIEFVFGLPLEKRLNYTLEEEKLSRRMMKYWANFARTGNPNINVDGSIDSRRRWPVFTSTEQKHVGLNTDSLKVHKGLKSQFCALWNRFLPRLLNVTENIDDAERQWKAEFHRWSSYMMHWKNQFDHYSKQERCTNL
Experiment: biochemical
Conditions: AChE isolated from Electrophorus electricus; read-out: AChE IC50
pIC50: −log10 of the molar value.

molecule: C[C@@H]([C@H]1[C@H](O)C[C@@]2(C)[C@@H]3CC[C@H]4[C@](C)(CO)[C@@H](N)CC[C@@]45CC35C(=O)C[C@]12C)N(C)C (stereo partly shown)
pIC50: < 5.30

molecule: CC[C@H](C)C(=O)N[C@H]1CCC23C[C@]24C(=O)C[C@]2(C)[C@@H]([C@H](C)N(C)C)[C@H](O)C[C@@]2(C)[C@@H]4CC[C@H]3[C@]1(C)/C=N/Cc1ccccc1 (stereo partly shown)
pIC50: < 4.00

molecule: CC[C@H](C)C1=N[C@H]2CC=C3C[C@H]4C(=O)C[C@]5(C)[C@@H]([C@H](C)N(C)C)[C@H](O)C[C@@]5(C)[C@@H]4CC[C@H]3[C@]2(C)CO1
pIC50: 7.89

molecule: CC(C)C(=O)N[C@H]1CCC23C[C@]24C(=O)C[C@]2(C)[C@@H]([C@H](C)N(C)C)[C@H](OC(=O)C(C)(C)C)C[C@@]2(C)[C@@H]4CC[C@H]3[C@]1(C)CNC([Si](C)(C)C)[Si](C)(C)C (stereo partly shown)
pIC50: < 4.00

molecule: CC[C@H](C)C(=O)N[C@H]1CC=C2C[C@H]3C(=O)C[C@]4(C)[C@@H]([C@H](C)N(C)C)[C@H](O)C[C@@]4(C)[C@@H]3CC[C@H]2[C@]1(C)C=O
pIC50: < 4.00

molecule: C[C@@H]([C@H]1[C@H](O)C[C@@]2(C)[C@@H]3CC[C@H]4[C@](C)(CO)[C@@H](NC(=O)c5ccccc5)CC[C@@]45CC35C(=O)C[C@]12C)N(C)C (stereo partly shown)
pIC50: < 5.00

molecule: CC[C@H](C)C(=O)N[C@H]1CCC23C[C@]24C(=O)C[C@]2(C)[C@@H]([C@H](C)N(C)C)[C@H](OC(C)=O)C[C@@]2(C)[C@@H]4CC[C@H]3[C@]1(C)C=O (stereo partly shown)
pIC50: < 4.00

molecule: CC(C)C(=O)N[C@H]1CCC23C[C@]24C(=O)C[C@]2(C)[C@@H]([C@H](C)N(C)C)[C@H](OS(C)(=O)=O)C[C@@]2(C)[C@@H]4CC[C@H]3[C@]1(C)CO (stereo partly shown)
pIC50: ≤ 4.00

molecule: CCC(C)C1=NC2CCC34C[C@]35C(=O)C[C@]3(C)[C@@H]([C@H](C)N(C)C)[C@H](O)C[C@@]3(C)[C@@H]5CC[C@H]4[C@]2(C)CN1 (stereo partly shown)
pIC50: 7.85

molecule: CC(=O)O[C@@H]1C[C@@]2(C)[C@@H]3CC[C@@H]4C5(CC[C@H](NC(=O)C(C)C)[C@@]4(C)C=O)C[C@@]35C(=O)C[C@]2(C)[C@H]1[C@H](C)N(C)C (stereo partly shown)
pIC50: < 6.00

molecule: CC(C)C(=O)N[C@H]1CCC23C[C@]24C(=O)C[C@]2(C)[C@@H]([C@H](C)N(C)C)[C@H](OC(=O)C(C)(C)C)C[C@@]2(C)[C@@H]4CC[C@H]3[C@]1(C)/C=N/Cc1ccccc1 (stereo partly shown)
pIC50: < 6.00

molecule: C[C@@H]([C@H]1[C@H](O)C[C@@]2(C)[C@@H]3CC[C@@H]4C(=CC[C@H](NC(=O)C5CCCCC5)[C@@]4(C)CO)C[C@H]3C(=O)C[C@]12C)N(C)C
pIC50: < 6.00

molecule: CC[C@H](C)C(=O)N[C@H]1CCC23C[C@]24C(=O)C[C@]2(C)[C@@H]([C@H](C)N(C)C)[C@H](O)C[C@@]2(C)[C@@H]4CC[C@H]3[C@]1(C)C=O (stereo partly shown)
pIC50: < 4.00

molecule: CC(C)C(=O)NC1CCC23C[C@]24C(=O)C[C@]2(C)[C@@H]([C@H](C)N(C)C)[C@H](OC(=O)C(C)(C)C)C[C@@]2(C)[C@@H]4CC[C@H]3[C@]1(C)CN (stereo partly shown)
pIC50: 5.88

molecule: C[C@@H]([C@H]1[C@H](O)C[C@@]2(C)[C@@H]3CC[C@@H]4C5(CC[C@H](NC(=O)C6CCCCC6)[C@@]4(C)CO)C[C@@]35C(=O)C[C@]12C)N(C)C (stereo partly shown)
pIC50: < 5.00

molecule: CN[C@@H](C)[C@H]1[C@H](OC(=O)C(C)(C)C)C[C@@]2(C)[C@@H]3CC[C@@H]4C5(CC[C@H](NC(=O)C(C)C)[C@@]4(C)C=O)C[C@@]35C(=O)C[C@]12C (stereo partly shown)
pIC50: < 4.00
